target: PI 3-kinase beta (Homo sapiens, UniProt P42338); test: Kinase Glo Luminescent Kinase Assay (Kglo), assay B; assay type: biochemical; conditions: read-out: Assay B PI3Kβ IC50
Sequence (P42338 whole entry): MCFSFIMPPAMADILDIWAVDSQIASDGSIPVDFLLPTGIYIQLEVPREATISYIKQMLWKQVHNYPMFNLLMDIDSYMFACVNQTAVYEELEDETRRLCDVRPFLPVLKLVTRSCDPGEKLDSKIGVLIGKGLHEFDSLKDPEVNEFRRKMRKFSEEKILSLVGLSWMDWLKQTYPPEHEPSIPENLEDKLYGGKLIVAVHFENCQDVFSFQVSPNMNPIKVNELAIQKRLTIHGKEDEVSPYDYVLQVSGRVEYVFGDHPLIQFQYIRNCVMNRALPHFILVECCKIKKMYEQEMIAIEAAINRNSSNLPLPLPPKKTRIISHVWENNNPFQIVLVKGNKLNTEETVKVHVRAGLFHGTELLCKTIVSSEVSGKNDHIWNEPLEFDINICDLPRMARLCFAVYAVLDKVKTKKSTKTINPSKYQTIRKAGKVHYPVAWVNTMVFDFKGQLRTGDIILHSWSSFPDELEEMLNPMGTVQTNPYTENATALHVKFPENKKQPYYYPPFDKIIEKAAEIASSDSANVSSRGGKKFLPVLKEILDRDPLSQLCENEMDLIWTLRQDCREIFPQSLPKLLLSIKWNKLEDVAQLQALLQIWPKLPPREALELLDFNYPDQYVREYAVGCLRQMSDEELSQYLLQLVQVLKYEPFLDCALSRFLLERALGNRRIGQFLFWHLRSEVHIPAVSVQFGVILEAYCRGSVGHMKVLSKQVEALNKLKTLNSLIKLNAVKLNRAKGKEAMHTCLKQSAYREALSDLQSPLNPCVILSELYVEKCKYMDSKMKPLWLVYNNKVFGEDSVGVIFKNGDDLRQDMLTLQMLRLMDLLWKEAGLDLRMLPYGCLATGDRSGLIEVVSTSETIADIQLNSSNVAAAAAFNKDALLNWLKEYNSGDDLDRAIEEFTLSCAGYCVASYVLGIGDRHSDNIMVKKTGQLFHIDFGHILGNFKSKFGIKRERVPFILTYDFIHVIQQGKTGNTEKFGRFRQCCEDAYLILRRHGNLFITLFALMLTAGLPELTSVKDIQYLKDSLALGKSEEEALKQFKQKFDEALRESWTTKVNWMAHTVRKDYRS
Sequence (P27986 461-568 partner): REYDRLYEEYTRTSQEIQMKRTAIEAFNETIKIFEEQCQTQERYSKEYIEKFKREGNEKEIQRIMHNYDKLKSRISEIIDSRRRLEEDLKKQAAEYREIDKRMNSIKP
endpoint: IC50

Here are 2 compounds together with their reported answers.
{"columns": ["molecularString", "endpoint", "result"],
 "data": [
  ["CCc1noc(-c2nc(-c3cc(S(=O)(=O)NC4CNC4)ccc3C)cnc2N)n1", "IC50", "> 9.1 µM"],
  ["CCc1noc(-c2nc(-c3cc(S(=O)(=O)N4CCC(CO)CC4)ccc3C)cnc2N)n1", "IC50", "> 9.1 µM"]
]}

Consider the record given below.
Q: Name the reported IC50 value associated with the compound Cc1cc(-c2nc(-c3cc(S(=O)(=O)NC4CCN(C(C)C)CC4)ccc3C)cnc2N)ccn1
Ans: > 9.1 µM

====

target: PI 3-kinase gamma (Homo sapiens, UniProt P48736); assay: TR-FRET Adapta assay, assay E; type: biochemical; conditions: read-out: Assay E PI3Kγ IC50
Sequence (P48736 whole entry): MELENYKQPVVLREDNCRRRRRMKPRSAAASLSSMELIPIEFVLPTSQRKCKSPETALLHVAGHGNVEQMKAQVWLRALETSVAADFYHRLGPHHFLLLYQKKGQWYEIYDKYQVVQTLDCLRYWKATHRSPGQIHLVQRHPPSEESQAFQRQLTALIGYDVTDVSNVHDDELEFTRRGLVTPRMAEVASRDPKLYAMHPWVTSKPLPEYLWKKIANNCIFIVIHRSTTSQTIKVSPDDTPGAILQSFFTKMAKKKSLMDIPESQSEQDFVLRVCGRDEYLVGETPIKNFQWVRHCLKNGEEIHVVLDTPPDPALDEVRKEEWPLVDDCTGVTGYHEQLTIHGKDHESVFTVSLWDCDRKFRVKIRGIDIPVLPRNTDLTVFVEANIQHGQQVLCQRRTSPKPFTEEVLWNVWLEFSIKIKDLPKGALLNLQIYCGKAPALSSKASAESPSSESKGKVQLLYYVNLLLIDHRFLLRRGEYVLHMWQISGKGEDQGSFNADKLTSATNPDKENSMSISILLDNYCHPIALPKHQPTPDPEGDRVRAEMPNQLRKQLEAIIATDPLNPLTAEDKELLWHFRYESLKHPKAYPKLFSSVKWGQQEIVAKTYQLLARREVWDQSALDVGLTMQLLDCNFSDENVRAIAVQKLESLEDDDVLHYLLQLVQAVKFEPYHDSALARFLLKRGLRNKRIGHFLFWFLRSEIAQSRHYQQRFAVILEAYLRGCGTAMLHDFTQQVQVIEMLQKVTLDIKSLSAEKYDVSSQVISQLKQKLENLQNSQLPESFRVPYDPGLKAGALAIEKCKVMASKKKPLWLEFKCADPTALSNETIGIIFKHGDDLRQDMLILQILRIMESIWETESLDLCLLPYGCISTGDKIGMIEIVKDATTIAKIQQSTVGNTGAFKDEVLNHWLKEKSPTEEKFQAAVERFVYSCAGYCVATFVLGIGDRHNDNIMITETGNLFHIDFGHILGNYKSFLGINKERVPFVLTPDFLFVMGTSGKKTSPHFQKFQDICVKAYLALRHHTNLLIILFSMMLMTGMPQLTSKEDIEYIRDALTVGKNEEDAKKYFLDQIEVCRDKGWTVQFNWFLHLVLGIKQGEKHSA
endpoint: IC50 (nM)

{"columns": ["molecularString", "experimentalTarget", "IC50, nM"],
 "data": [
  ["Cc1ccc(S(=O)(=O)NCCC(C)(C)O)cc1-c1cnc(N)c(-c2cccnc2)n1", "PI 3-kinase gamma (Homo sapiens, UniProt P48736)", 82]
]}

A: Cc1ccc(S(=O)(=O)NC[C@H]2COCCN2)cc1-c1cnc(N)c(-c2cn(C)nc2C)n1
B: Cc1ncc(-c2nc(-c3cc(S(=O)(=O)NCC4(O)CCOCC4)ccc3C)cnc2N)s1
Q: Of A and B , whose reported IC50 is numerically smaller? Indicate your choice by writing its label.
Ans: B
(B: 10 nM, A: 79 nM)

====

target: PI 3-kinase delta (Homo sapiens, UniProt O00329); assay: Cellular assay J1, p-Akt (S473) in Rat-1 cells, Surefire format; assay type: cell-based; details: non-asterisked data: version J1 (Surefire format), Rat-1 cells; read-out: Assay J PI3Kδ IC50
Sequence (O00329 whole entry): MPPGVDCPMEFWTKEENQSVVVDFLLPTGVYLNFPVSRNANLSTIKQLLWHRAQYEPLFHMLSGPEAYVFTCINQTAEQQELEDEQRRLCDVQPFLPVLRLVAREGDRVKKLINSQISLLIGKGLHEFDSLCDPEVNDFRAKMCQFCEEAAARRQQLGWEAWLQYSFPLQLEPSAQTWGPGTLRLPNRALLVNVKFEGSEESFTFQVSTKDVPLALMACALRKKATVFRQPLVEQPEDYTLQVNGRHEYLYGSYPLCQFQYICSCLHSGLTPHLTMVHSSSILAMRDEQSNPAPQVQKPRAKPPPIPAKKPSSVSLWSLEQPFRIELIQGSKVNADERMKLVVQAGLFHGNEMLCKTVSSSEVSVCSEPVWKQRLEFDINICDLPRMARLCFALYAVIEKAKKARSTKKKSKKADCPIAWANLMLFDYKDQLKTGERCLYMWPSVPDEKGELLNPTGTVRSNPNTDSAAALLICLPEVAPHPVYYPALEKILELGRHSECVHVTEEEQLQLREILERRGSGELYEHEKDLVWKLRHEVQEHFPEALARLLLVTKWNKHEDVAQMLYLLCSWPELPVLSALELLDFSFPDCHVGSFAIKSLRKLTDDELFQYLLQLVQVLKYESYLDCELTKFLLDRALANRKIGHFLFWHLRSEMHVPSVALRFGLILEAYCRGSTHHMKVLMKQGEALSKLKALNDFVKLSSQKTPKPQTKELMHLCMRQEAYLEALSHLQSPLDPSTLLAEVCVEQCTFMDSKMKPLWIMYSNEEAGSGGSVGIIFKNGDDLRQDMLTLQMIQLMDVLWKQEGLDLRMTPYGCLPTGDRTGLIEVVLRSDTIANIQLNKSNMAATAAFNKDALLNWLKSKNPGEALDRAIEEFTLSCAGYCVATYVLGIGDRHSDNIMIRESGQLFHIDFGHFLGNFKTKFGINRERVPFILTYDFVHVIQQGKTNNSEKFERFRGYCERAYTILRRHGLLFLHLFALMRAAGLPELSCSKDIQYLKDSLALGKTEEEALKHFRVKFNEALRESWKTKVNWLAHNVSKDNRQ
Sequence (Q63787 whole entry partner): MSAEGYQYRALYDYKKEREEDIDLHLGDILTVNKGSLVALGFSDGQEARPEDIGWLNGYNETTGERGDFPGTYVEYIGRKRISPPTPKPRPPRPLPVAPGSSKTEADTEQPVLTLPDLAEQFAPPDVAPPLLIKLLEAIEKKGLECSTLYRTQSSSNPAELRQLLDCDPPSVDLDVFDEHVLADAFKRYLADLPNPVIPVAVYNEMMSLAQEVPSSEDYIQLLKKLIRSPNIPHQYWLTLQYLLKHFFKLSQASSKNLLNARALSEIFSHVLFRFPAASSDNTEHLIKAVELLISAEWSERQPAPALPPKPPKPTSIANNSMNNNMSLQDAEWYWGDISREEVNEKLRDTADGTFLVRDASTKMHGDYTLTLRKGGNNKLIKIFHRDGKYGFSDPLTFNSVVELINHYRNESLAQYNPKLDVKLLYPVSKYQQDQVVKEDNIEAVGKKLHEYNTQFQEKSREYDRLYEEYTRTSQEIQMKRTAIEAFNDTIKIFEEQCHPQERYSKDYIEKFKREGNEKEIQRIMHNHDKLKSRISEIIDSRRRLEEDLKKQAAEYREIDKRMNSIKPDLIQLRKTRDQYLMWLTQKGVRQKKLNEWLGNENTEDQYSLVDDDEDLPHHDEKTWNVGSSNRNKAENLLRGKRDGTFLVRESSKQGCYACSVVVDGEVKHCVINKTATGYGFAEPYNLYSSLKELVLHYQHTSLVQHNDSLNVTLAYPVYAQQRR
pIC50: −log10 of the molar value.
endpoint: pIC50

{"columns": ["compound", "pIC50"],
 "data": [
  ["Cc1ccc(S(=O)(=O)NCCC(C)(C)O)cc1-c1cnc(N)c(-c2cnn(CCN3CCOCC3)c2)n1 [Example 119.41]", 5.19]
]}

a: CCc1noc(-c2nc(-c3cc(S(=O)(=O)NC4CNC4)ccc3C)cnc2N)n1 [Example 137]
b: Cc1ccc(S(=O)(=O)NCCC(C)(C)O)cc1-c1cnc(N)c(-c2cc(C(F)(F)F)nn2C)n1 [Example 119]
c: Cc1ccc(S(=O)(=O)NCCC(C)(C)O)cc1-c1cnc(N)c(-c2cccnc2)n1 [Example 119.5]
Q: Rank the items in ascending order with respect to pIC50. Sort the labels as requested; that list is your answer.
Ans: a, c, b

====

target: mTOR (Homo sapiens); assay: Lanthascreen kinase binding assay, assay G; details: read-out: Assay G mTOR IC50
pIC50: −log10 of the molar value. Counter-ions that a name gives are not always drawn.
endpoint: pIC50

The cases that follow already have their pIC50 on record.
{"columns": ["molecule", "pIC50"],
 "data": [
  ["Cc1ccc(S(=O)(=O)N2CC(F)(F)C2)cc1-c1cnc(N)c(-n2cncn2)n1", "< 5.02"],
  ["Cc1ccc(S(=O)(=O)N[C@H]2CC[C@H](O)CC2)cc1-c1cnc(N)c(-n2cccn2)n1", "< 5.04"],
  ["Cc1ccc(S(=O)(=O)NCC(C)(C)O)cc1-c1cnc(N)c(-c2cn(C)nn2)n1", "< 5.00"],
  ["Cc1ccc(S(=O)(=O)N[C@H]2CC[C@H](O)CC2)cc1-c1cnc(N)c(-c2ccnc(F)c2)n1", 5.08],
  ["Cc1ccc(S(=O)(=O)NCCC(C)(C)O)cc1-c1cnc(N)c(-c2ccncc2F)n1", "< 5.04"],
  ["CCCn1cc(-c2nc(-c3cc(S(=O)(=O)NCCC(C)(C)O)ccc3C)cnc2N)cn1", 5.06]
]}

Q: Report pIC50 for CCONS(=O)(=O)c1ccc(C)c(-c2cnc(N)c(-n3cncn3)n2)c1 please.
Ans: 5.20

Q: Same for Cc1ccc(S(=O)(=O)NC2CC3(CC(O)C3)C2)cc1-c1cnc(N)c(-c2cn(C)nc2C)n1 (single isomer, unassigned) [Example 9b]
Ans: < 5.00

Q: Also Cc1ccc(S(=O)(=O)NCCC(C)(C)O)cc1-c1cnc(N)c(-c2ccc(N3CCOCC3)nc2)n1 , if possible.
Ans: < 5.04

Q: Same again, this time with Cc1cc(-c2nc(-c3cc(S(=O)(=O)NCC4(C(N)=O)CCOCC4)ccc3C)cnc2N)ccn1
Ans: < 5.04

Q: Okay, and Cc1ccc(S(=O)(=O)NCCC(C)(C)O)cc1-c1cnc(N)c(-c2ccnc(F)c2)n1 ?
Ans: 5.19

Q: Then this molecule: Cc1ccc(S(=O)(=O)NC[C@@H]2CCNC2)cc1-c1cnc(N)c(-n2cncn2)n1 [Example 127.57, trifluoroacetic acid salt]
Ans: 5.30

Q: Request: Cc1cc(-c2nc(-c3cc(S(=O)(=O)NCCN(C)C)ccc3C)cnc2N)ccn1
Ans: < 5.04

Q: Do the same for Cc1ccc(S(=O)(=O)NCCC(C)(C)O)cc1-c1cnc(N)c(-c2cnn(Cc3ccccc3)c2)n1 [Example 132, hydrochloride] please
Ans: < 5.04

Q: Another molecule to look at: Cc1cc(-c2nc(-c3cc(S(=O)(=O)NCCN4CCOCC4)ccc3C)cnc2N)ccn1
Ans: < 5.04

Q: Another molecule to look at: Cc1ccc(S(=O)(=O)NCC(C)(C)O)cc1-c1cnc(N)c(-c2cnn(C)c2C)n1
Ans: < 5.00

Q: Try Cc1ccc(S(=O)(=O)NCC2CCCCO2)cc1-c1cnc(N)c(-n2cncn2)n1 (centres unmarked) next.
Ans: < 5.00

Q: Please do the same for Cc1ccc(S(=O)(=O)NCCC(C)(C)O)cc1-c1cnc(N)c(-c2ccc(C3CC3)s2)n1 as well.
Ans: 5.17

Q: Next record, please: COc1nc(-c2nc(-c3cc(S(=O)(=O)NCCC(C)(C)O)ccc3C)cnc2N)cs1
Ans: < 5.00

Q: Next record, please: CCc1nnc(-c2nc(-c3cc(S(=O)(=O)N[C@H]4CC[C@H](O)CC4)ccc3C)cnc2N)o1
Ans: < 5.04
